test: Partition coefficient, log P of the compound at 5 mM by reversed phase HPLC analysis; format: physicochemical; conditions: octanol/water
Please assign 0 whenever logP at 5000 µM is at or above 6, and 1 whenever it is below.

compound="CCCCCCCCc1ccc(OC(C)C(=O)Cn2nnc(-c3ccc(Cl)cc3)n2)cc1 (centres undefined)" cat=0
compound=CCCCCCCCc1ccc(OCC(=O)Cn2nnc(C(=O)O)n2)cc1 cat=1
compound="CC(Oc1ccc(-c2ccccc2)cc1)C(=O)Cn1nnc(-c2ccc(C(=O)O)cc2)n1 (centres undefined)" cat=1
compound="CCCCCCCCc1ccc(OC(C)C(=O)Cn2nnc(-c3ccc(C(=O)OC)cc3)n2)cc1 (centres undefined)" cat=0
compound="CC(Oc1ccc(Oc2ccc(F)cc2)cc1)C(=O)Cn1nnc(-c2ccc(C(=O)O)cc2)n1 (centres undefined)" cat=1
compound="CCCCCCCCc1ccc(OC(C)C(=O)Cn2nnc(-c3ccccc3)n2)cc1 (centres undefined)" cat=0
compound=CCCCCCCCc1ccc(OCC(=O)Cn2nnc(-c3ccc(C(=O)OC)cc3)n2)cc1 cat=0
compound="CC(Oc1ccc(Oc2ccc(Cl)cc2)cc1)C(=O)Cn1nnc(-c2ccc(C(=O)O)cc2)n1 (centres undefined)" cat=1
compound="COC(=O)c1ccc(-c2nnn(CC(=O)C(C)Oc3ccc(Oc4ccc(C(F)(F)F)cc4)cc3)n2)cc1 (centres undefined)" cat=0
compound="CC(Oc1ccc(Oc2ccc(C(F)(F)F)cc2)cc1)C(=O)Cn1nnc(-c2ccc(C(=O)O)cc2)n1 (centres undefined)" cat=1
compound="CC(Oc1ccc(Oc2ccc(F)cc2)cc1)C(=O)Cn1nnc(-c2ccccc2)n1 (centres undefined)" cat=1
compound="CC(Oc1ccc(Oc2ccc(F)cc2)cc1)C(=O)Cn1nnc(-c2ccc(Cl)cc2)n1 (centres undefined)" cat=0
compound="COC(=O)c1ccc(-c2nnn(CC(=O)C(C)Oc3ccc(Oc4ccc(F)cc4)cc3)n2)cc1 (centres undefined)" cat=1
compound=CCCCCCCCc1ccc(OCC(=O)Cn2nnc(-c3ccccc3)n2)cc1 cat=0
compound=CCCCCCCCc1ccc(OCC(=O)Cn2nnc(-c3ccc(Cl)cc3)n2)cc1 cat=0
compound="CC(Oc1ccc(Oc2ccc(C(F)(F)F)cc2)cc1)C(=O)Cn1nnc(-c2ccccc2)n1 (centres undefined)" cat=0
compound="CC(Oc1ccc(Oc2ccc(Cl)cc2)cc1)C(=O)Cn1nnc(-c2ccc(Cl)cc2)n1 (centres undefined)" cat=0
compound="CC(Oc1ccc(-c2ccccc2)cc1)C(=O)Cn1nnc(-c2ccccc2)n1 (centres undefined)" cat=1
compound="CC(Oc1ccc(Oc2ccc(C(F)(F)F)cc2)cc1)C(=O)Cn1nnc(-c2ccc(Cl)cc2)n1 (centres undefined)" cat=0
compound="COC(=O)c1ccc(-c2nnn(CC(=O)C(C)Oc3ccc(-c4ccccc4)cc3)n2)cc1 (centres undefined)" cat=1

---

test: Partition coefficient, log P of the compound at 5 mM by reversed phase HPLC analysis; format: physicochemical; settings: octanol/water
readoutName: logP at 5000 µM

compound="CC(Oc1ccc(Oc2ccc(Cl)cc2)cc1)C(=O)Cn1nnc(-c2ccccc2)n1 (centres undefined)" readoutname="logP at 5000 µM" observed=6
compound="CC(Oc1ccc(-c2ccccc2)cc1)C(=O)Cn1nnc(-c2ccc(Cl)cc2)n1 (centres undefined)" readoutname="logP at 5000 µM" observed=6.1
compound="CCCCCCCCc1ccc(OC(C)C(=O)Cn2nnc(-c3ccc(C(=O)O)cc3)n2)cc1 (centres undefined)" readoutname="logP at 5000 µM" observed=5.9
compound="COC(=O)c1ccc(-c2nnn(CC(=O)C(C)Oc3ccc(Oc4ccc(Cl)cc4)cc3)n2)cc1 (centres undefined)" readoutname="logP at 5000 µM" observed=6.1

Hey, just so you know, these numbers are from ChEMBL document CHEMBL4382212.
